Target: 5-hydroxytryptamine receptor 2C (Homo sapiens)
Sequence (P28335 whole entry): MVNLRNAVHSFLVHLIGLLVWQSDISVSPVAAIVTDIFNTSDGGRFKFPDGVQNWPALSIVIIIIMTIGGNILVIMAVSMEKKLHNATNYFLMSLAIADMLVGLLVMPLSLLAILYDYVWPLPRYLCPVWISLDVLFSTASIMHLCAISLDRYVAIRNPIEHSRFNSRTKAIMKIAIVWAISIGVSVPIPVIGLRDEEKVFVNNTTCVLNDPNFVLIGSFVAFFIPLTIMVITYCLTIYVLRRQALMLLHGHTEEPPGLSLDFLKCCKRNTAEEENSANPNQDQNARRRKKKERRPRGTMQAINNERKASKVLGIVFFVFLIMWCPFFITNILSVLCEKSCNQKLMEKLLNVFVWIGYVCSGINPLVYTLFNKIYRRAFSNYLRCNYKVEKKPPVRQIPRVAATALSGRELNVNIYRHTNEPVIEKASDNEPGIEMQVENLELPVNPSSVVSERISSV
experimental.endpoint: IC50

- structure.smiles.string: "CC(=O)Nc1cc(Cl)ccc1/C=C/C(=O)N1CCN(Cc2ccc(F)cc2)C[C@H]1C"
  target: "5-hydroxytryptamine receptor 2C (Homo sapiens)"
  endpoint.result: "> 1000 nM"

====

Biological target: C-C chemokine receptor type 6 (Homo sapiens, UniProt P51684)
Sequence (P51684 whole entry): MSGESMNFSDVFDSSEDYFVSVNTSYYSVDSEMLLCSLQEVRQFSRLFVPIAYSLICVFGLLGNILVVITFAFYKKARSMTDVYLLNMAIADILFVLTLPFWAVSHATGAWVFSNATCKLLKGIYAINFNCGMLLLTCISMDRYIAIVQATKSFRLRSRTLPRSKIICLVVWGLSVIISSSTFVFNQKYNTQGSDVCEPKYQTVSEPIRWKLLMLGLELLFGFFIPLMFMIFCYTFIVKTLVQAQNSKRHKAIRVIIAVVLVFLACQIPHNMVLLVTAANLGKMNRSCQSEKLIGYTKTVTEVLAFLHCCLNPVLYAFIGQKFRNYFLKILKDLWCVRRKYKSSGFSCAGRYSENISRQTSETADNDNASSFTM

- structure.smiles.string: "CC(=O)Nc1cc(Cl)ccc1/C=C/C(=O)N1CCN(Cc2ccc(F)cc2)C[C@H]1C"
  IC50: "> 100 µM"

====

Target: UniProt:P50406
Sequence (P50406 whole entry): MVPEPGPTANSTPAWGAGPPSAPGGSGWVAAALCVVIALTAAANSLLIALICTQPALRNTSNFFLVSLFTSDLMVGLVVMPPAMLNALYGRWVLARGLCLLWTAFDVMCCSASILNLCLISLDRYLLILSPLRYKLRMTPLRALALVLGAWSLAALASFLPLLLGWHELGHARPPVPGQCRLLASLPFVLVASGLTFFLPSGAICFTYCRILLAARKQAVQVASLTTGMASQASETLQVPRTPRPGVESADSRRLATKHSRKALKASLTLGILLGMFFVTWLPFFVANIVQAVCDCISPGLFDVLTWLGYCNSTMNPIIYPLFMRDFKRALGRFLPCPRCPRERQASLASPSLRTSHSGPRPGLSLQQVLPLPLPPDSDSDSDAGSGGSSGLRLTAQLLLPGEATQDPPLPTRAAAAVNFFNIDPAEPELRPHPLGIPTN
pIC50: −log10 of the molar value.
experimental.endpoint: pIC50

- structure.smiles.string: "CC(=O)Nc1cc(Cl)ccc1/C=C/C(=O)N1CCN(Cc2ccc(F)cc2)C[C@H]1C"
  experimental.endpoint: "pIC50"
  endpoint.result: "< 6.00"

====

Species: Rattus norvegicus
Experiment: Maximum concentration in rat
Format: ADME, organism-based
Settings: in vivo
Cmax less than 0.4 µM is 1; Cmax greater than or equal to 0.4 µM is -1.

- structure.smiles.string: "CC(=O)Nc1cc(Cl)ccc1/C=C/C(=O)N1CCN(Cc2ccc(F)cc2)C[C@H]1C"
  class.assignment: -1
- structure.smiles.string: "COc1cc(/C=C/C(=O)N2C3CCC2CN(Cc2ccc(F)cc2)C3)c(NC(C)=O)cc1Cl"
  class.assignment: 1
- structure.smiles.string: "C[C@@H]1CN(Cc2ccc(F)cc2)CCN1C(=O)/C=C/c1ccc(Cl)cc1NC(N)=O"
  class.assignment: -1

====

Target sequence: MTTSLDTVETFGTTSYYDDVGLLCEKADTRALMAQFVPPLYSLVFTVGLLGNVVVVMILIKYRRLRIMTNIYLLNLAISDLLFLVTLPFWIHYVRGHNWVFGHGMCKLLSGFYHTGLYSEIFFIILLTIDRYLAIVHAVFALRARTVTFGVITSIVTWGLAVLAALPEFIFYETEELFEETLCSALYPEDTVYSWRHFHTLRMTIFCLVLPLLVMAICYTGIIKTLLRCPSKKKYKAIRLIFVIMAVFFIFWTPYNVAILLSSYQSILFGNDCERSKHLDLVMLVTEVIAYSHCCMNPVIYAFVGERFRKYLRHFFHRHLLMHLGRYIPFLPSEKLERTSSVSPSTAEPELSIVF
pIC50: −log10 of the molar value.

- structure.smiles.string: "CC(=O)Nc1cc(Cl)ccc1/C=C/C(=O)N1CCN(Cc2ccc(F)cc2)C[C@H]1C"
  pIC50: "< 5.00"

====

Biological target: Muscarinic acetylcholine receptor M3 (Homo sapiens)
Sequence (P20309 whole entry): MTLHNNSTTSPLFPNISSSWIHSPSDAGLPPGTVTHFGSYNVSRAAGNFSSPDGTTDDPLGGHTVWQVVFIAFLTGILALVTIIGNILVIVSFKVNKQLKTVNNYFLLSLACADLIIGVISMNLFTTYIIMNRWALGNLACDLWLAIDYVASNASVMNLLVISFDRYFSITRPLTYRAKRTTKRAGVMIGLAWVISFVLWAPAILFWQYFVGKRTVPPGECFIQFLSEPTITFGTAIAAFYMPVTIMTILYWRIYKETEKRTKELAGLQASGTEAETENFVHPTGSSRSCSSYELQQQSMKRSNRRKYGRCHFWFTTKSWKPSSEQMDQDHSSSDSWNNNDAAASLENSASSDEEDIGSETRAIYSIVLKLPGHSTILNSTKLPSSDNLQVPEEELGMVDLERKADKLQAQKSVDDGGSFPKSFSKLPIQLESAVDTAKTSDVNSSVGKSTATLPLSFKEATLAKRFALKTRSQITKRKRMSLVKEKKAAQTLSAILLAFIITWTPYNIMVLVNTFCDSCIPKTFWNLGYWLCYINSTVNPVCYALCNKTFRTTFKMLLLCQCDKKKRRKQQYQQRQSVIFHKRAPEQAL
pIC50: −log10 of the molar value.
experimental.endpoint: pIC50

- structure.smiles.string: "CC(=O)Nc1cc(Cl)ccc1/C=C/C(=O)N1CCN(Cc2ccc(F)cc2)C[C@H]1C"
  experimental.endpoint: "pIC50"
  endpoint.result: "< 6.00"

====

Target: D(1A) dopamine receptor (Homo sapiens)
Sequence (P21728 whole entry): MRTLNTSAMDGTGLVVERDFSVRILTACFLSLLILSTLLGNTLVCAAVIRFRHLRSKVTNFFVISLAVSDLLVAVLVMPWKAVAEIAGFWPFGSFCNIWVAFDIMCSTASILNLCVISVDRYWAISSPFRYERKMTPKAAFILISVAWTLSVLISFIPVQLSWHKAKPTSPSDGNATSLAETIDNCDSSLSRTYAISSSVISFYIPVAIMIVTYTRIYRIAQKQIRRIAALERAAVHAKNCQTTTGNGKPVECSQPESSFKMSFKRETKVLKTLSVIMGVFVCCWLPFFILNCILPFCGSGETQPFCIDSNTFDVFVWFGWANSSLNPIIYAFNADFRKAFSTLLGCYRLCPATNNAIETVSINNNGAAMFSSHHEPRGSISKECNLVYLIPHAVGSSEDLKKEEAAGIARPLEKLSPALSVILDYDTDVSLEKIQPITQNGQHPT
Experiment: Inhibition of human dopamine receptor D1

- structure.smiles.string: "CC(=O)Nc1cc(Cl)ccc1/C=C/C(=O)N1CCN(Cc2ccc(F)cc2)C[C@H]1C"
  target: "D(1A) dopamine receptor (Homo sapiens)"
  IC50: "> 1 µM"

====

Assay: Half life in rat
Format: ADME, organism-based
Conditions: in vivo
half-life less than 5 h is 1; half-life greater than or equal to 5 h is 0.

- structure.smiles.string: "C[C@@H]1CN(Cc2ccc(F)cc2)CCN1C(=O)COc1ccc(Cl)cc1NC(N)=O.Cl"
  class.assignment: 1
- structure.smiles.string: "CN(C)CC(=O)Nc1cc(Cl)ccc1/C=C/C(=O)N1C2CCC1CN(Cc1ccc(F)cc1)C2"
  class.assignment: 1
- structure.smiles.string: "CC(=O)Nc1cc(Cl)ccc1/C=C/C(=O)N1CCN(Cc2ccc(F)cc2)C[C@H]1C"
  class.assignment: 0
- structure.smiles.string: "COc1cc(/C=C/C(=O)N2CCN(Cc3ccc(F)cc3)C[C@H]2C)c(NC(C)=O)cc1Cl"
  class.assignment: 1
- structure.smiles.string: "C[C@@H]1CN(Cc2ccc(F)cc2)CCN1C(=O)/C=C/c1ccc(Cl)cc1NC(N)=O"
  class.assignment: 0

====

Assay: Oral bioavailability in rat
Assay type: ADME, organism-based
Settings: in vivo
experimental.endpoint: bioavailability (%)

- structure.smiles.string: "CC(=O)Nc1cc(Cl)ccc1/C=C/C(=O)N1CCN(Cc2ccc(F)cc2)C[C@H]1C"
  unit.label: "%"
  endpoint.result: 95
- structure.smiles.string: "C[C@@H]1CN(Cc2ccc(F)cc2)CCN1C(=O)COc1ccc(Cl)cc1NC(N)=O.Cl"
  unit.label: "%"
  endpoint.result: 100
- structure.smiles.string: "COc1cc(/C=C/C(=O)N2CCN(Cc3ccc(F)cc3)C[C@H]2C)c(NC(C)=O)cc1Cl"
  unit.label: "%"
  endpoint.result: 100
- structure.smiles.string: "CN(C)CC(=O)Nc1cc(Cl)ccc1/C=C/C(=O)N1C2CCC1CN(Cc1ccc(F)cc1)C2"
  unit.label: "%"
  endpoint.result: 77
- structure.smiles.string: "COc1cc(/C=C/C(=O)N2C3CCC2CN(Cc2ccc(F)cc2)C3)c(NC(C)=O)cc1Cl"
  unit.label: "%"
  endpoint.result: 83
- structure.smiles.string: "C[C@@H]1CN(Cc2ccc(F)cc2)CCN1C(=O)/C=C/c1ccc(Cl)cc1NC(N)=O"
  unit.label: "%"
  endpoint.result: 90

====

Biological target: Delta-type opioid receptor (Homo sapiens, UniProt P41143)
Sequence (P41143 whole entry): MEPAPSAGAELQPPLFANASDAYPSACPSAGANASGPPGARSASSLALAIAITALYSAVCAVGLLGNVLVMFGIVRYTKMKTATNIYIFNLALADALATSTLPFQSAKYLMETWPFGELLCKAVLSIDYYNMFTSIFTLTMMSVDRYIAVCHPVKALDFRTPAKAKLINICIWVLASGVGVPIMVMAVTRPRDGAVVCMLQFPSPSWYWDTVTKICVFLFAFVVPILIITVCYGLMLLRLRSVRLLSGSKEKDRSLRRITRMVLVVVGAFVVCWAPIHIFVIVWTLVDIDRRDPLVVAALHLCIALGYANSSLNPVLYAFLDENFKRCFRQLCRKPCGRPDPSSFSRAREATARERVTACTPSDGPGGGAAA
Test: Inhibition of human delta opioid receptor
pIC50: −log10 of the molar value.

- structure.smiles.string: "CC(=O)Nc1cc(Cl)ccc1/C=C/C(=O)N1CCN(Cc2ccc(F)cc2)C[C@H]1C"
  pIC50: "< 6.00"

====

Biological target: D(3) dopamine receptor (Homo sapiens)
Sequence (P35462 whole entry): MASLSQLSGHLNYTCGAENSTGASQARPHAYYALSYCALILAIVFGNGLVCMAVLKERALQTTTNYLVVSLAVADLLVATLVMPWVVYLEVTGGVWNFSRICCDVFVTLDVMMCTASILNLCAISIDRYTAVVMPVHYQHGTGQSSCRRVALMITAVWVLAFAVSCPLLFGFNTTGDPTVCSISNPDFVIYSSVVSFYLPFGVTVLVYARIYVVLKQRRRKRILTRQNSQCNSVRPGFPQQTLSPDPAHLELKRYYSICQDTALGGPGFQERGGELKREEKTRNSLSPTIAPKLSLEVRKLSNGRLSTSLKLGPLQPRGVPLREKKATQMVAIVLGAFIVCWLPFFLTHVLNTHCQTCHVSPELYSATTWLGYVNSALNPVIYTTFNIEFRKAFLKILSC

- structure.smiles.string: "CC(=O)Nc1cc(Cl)ccc1/C=C/C(=O)N1CCN(Cc2ccc(F)cc2)C[C@H]1C"
  IC50: "> 1 µM"

====

Molecular target: 5-hydroxytryptamine receptor 7 (Homo sapiens, UniProt P34969)
Sequence (P34969 whole entry): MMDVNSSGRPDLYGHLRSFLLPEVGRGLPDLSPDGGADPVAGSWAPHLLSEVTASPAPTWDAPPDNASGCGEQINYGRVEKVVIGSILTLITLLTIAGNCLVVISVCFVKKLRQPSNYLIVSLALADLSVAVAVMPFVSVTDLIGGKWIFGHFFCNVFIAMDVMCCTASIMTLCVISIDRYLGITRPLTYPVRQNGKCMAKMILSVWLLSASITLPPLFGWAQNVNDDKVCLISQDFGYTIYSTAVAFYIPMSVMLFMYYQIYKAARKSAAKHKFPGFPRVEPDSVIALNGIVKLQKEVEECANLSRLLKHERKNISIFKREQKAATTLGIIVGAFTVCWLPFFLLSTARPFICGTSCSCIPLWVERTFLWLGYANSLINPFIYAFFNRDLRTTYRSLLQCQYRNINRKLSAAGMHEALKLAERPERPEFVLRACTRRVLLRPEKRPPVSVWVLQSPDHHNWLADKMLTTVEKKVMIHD
pIC50: −log10 of the molar value.

- structure.smiles.string: "CC(=O)Nc1cc(Cl)ccc1/C=C/C(=O)N1CCN(Cc2ccc(F)cc2)C[C@H]1C"
  target: "5-hydroxytryptamine receptor 7 (Homo sapiens, UniProt P34969)"
  pIC50: "< 6.00"

====

Biological target: Serotonin 3 (5-HT3) receptor
Assay: Inhibition of human 5HT3 receptor
pIC50: −log10 of the molar value.
experimental.endpoint: pIC50

- structure.smiles.string: "CC(=O)Nc1cc(Cl)ccc1/C=C/C(=O)N1CCN(Cc2ccc(F)cc2)C[C@H]1C"
  target: "Serotonin 3 (5-HT3) receptor"
  experimental.endpoint: "pIC50"
  endpoint.result: "< 6.00"

====

Molecular target: UniProt:P51675
Sequence (P51675 whole entry): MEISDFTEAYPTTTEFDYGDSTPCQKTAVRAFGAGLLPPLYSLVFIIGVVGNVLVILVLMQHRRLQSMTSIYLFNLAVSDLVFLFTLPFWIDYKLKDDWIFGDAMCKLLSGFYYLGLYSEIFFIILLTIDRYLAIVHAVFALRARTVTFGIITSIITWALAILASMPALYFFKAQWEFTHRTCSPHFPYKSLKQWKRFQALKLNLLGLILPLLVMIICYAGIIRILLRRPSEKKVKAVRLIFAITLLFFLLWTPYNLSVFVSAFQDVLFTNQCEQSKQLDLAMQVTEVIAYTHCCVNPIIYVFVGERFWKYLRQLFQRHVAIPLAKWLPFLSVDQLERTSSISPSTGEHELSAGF
Assay: Antagonistic activity at mouse CCR1 in CHO-K1 cells
pIC50: −log10 of the molar value.
experimental.endpoint: pIC50

- structure.smiles.string: "CC(=O)Nc1cc2ncccc2cc1/C=C/C(=O)N1C2CCC1CN(Cc1ccc(F)cc1)C2"
  endpoint.result: 7.30
- structure.smiles.string: "COc1cc(/C=C/C(=O)N2C3CCC2CN(Cc2ccc(F)cc2)C3)c(NC(C)=O)cc1Cl"
  endpoint.result: 8.40
- structure.smiles.string: "CC(=O)Nc1cc2ncccc2cc1/C=C/C(=O)N1CCN(Cc2ccc(F)cc2)C[C@H]1C"
  endpoint.result: 6.00
- structure.smiles.string: "CC(=O)Nc1cc2ccccc2cc1/C=C/C(=O)N1CCN(Cc2ccc(F)cc2)C[C@H]1C"
  endpoint.result: 6.30
- structure.smiles.string: "CN(C)CC(=O)Nc1cc(Cl)ccc1/C=C/C(=O)N1C2CCC1CN(Cc1ccc(F)cc1)C2"
  endpoint.result: 7.40

====

Assay: AUC in rat
Format: ADME, organism-based
Details: plasma
experimental.endpoint: AUC (ng·h/mL)

- structure.smiles.string: "COc1cc(/C=C/C(=O)N2CCN(Cc3ccc(F)cc3)C[C@H]2C)c(NC(C)=O)cc1Cl"
  endpoint.result: 750
- structure.smiles.string: "CC(=O)Nc1cc(Cl)ccc1/C=C/C(=O)N1CCN(Cc2ccc(F)cc2)C[C@H]1C"
  endpoint.result: 784
- structure.smiles.string: "CN(C)CC(=O)Nc1cc(Cl)ccc1/C=C/C(=O)N1C2CCC1CN(Cc1ccc(F)cc1)C2"
  endpoint.result: 1070
- structure.smiles.string: "C[C@@H]1CN(Cc2ccc(F)cc2)CCN1C(=O)/C=C/c1ccc(Cl)cc1NC(N)=O"
  endpoint.result: 487
- structure.smiles.string: "COc1cc(/C=C/C(=O)N2C3CCC2CN(Cc2ccc(F)cc2)C3)c(NC(C)=O)cc1Cl"
  endpoint.result: 158
- structure.smiles.string: "C[C@@H]1CN(Cc2ccc(F)cc2)CCN1C(=O)COc1ccc(Cl)cc1NC(N)=O.Cl"
  endpoint.result: 139

====

Target: D(2) dopamine receptor (Homo sapiens)
Sequence (P14416 whole entry): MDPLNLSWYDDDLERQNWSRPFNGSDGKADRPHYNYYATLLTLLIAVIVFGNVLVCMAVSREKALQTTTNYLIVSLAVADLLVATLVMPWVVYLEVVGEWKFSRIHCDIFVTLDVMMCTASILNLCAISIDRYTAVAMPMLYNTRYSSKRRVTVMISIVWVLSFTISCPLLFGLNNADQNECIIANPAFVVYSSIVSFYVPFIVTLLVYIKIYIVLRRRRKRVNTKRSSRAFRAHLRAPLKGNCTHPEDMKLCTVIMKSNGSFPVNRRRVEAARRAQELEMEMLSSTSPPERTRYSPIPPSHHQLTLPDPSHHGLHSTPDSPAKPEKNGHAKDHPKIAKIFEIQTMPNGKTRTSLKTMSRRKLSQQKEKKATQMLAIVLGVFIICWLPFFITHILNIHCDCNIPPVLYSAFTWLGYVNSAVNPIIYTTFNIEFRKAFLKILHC
Assay: Inhibition of human dopamine receptor D2

- structure.smiles.string: "CC(=O)Nc1cc(Cl)ccc1/C=C/C(=O)N1CCN(Cc2ccc(F)cc2)C[C@H]1C"
  IC50: "> 1000 nM"
